# protocol: growth suppression of yeast trafficking mutant, preliminary HTS, modulators of trafficking downstream of Golgi apparatus project, 1536-format plate, OD 615 nm (AID 637)
# setup conditions: yeast transport mutant growth, absorbance 615 nm, 18 h; hits give high values
readout kind: inhibition (%)
# number only, unit % dropped from output

CCC1=C(C(=O)OC)C(c2cc(OC)ccc2OC)C(C#N)=C(N)O1 (stereo not drawn): -0.98
Cc1ccc(OC(=O)NC2CCS(=O)(=O)C2)cc1C (stereo not drawn): 6.23

Here is the next item to consider.
Name the reported inhibition value associated with the compound C1CCc2nnc(-c3nnc4n3CCCCC4)n2CC1
1.67

====

# system under test: Receptor tyrosine-protein kinase erbB-2 (Homo sapiens) (UniProt P04626)
# Sequence (P04626 whole entry, looked up): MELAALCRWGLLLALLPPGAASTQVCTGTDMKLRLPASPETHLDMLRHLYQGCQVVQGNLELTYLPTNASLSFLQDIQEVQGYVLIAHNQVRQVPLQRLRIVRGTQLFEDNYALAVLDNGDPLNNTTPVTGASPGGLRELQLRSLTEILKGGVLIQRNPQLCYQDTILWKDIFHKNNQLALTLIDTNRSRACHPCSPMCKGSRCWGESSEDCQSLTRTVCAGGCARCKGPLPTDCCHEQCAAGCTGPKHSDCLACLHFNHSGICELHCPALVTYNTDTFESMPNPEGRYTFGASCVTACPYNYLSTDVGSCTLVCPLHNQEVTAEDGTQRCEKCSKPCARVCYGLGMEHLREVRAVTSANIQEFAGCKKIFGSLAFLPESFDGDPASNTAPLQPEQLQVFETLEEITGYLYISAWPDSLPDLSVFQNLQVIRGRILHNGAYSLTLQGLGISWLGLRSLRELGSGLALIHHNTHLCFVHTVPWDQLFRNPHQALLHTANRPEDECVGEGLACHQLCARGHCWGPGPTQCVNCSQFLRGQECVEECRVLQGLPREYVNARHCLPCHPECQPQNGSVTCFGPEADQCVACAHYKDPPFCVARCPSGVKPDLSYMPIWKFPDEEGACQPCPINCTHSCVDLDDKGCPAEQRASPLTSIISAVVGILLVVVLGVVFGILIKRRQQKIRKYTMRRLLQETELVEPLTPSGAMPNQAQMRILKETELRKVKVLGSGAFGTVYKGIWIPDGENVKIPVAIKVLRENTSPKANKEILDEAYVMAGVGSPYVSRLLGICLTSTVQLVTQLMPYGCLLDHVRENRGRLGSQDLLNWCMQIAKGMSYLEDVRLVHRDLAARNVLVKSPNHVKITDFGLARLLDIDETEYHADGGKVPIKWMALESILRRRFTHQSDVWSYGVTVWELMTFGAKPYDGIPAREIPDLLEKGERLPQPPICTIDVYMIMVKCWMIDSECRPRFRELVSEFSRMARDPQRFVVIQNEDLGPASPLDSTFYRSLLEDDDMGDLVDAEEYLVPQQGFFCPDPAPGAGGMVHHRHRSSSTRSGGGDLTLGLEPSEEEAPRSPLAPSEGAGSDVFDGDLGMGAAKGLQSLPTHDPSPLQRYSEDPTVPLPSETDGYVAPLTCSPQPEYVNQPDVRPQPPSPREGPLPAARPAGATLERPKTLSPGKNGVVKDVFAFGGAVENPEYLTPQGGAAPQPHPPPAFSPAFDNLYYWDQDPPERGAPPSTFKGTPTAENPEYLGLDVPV
# protocol: reducers of endogenous Her2 protein level, primary screen, SKBR3 breast tumor cells, AlphaScreen, ATP viability (AID 461);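 further: lower value means less Her2 protein in the cells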
# setup conditions: 18-24 h, at 10 µM, hits give low values
As shown below, each of these molecules has a reported Her2 level value.
# number only, unit % dropped from output

These solved cases illustrate the format of a correct answer.
Cc1c[nH]c2cccc(OCC(O)CNC(C)(C)C)c12 (stereo not drawn): 96
Cc1nc2ncnn2c(Nc2ccc3c(c2)OCCO3)c1C: 110
CN(C(=O)CSc1nc2c(c(=O)[nH]1)CCCC2)C1CCCCC1: 105
Cc1ccc2c(c1)CCCN2C(=O)Nc1ccc2c(c1)OCO2: 79
COc1ccc2c(c1)n([O-])c1c([n+]2=O)CCC1: 91.5

Name the reported Her2 level value associated with the molecule Cc1cc(C(=O)NCCCN2CCN(C3CCCCC3)CC2)n(-c2ccccc2)n1
111

And COc1ccc(C(=O)Nc2ccc(C)cn2)c(OC)c1 ?
77

And Cc1ccc(S(=O)(=O)Cc2ccc(C(=O)NCCCN3CCN(C)CC3)o2)cc1 ?
99.5

And COc1ccc(N2CCN(Cc3nc4c(c(=O)[nH]c(=O)n4C)n3CC(C)=O)CC2)cc1 ?
102

And COc1ccccc1C1CC(c2ccc(C)cc2)Nc2ncnn21 (stereo not drawn) ?
116

And COc1ccc(CCNC(=O)CSc2nncn2N)cc1OC ?
80.5

And O=C(OCC#CCSc1nnc(-c2ccccc2)o1)c1cccs1 ?
92

And Cc1cc(NC(=O)CCOc2ccccc2)no1 ?
96.5

And CCCCC(CC)CNC(=O)C1CCCN(S(=O)(=O)c2cnc[nH]2)C1 (stereo not drawn) ?
95.5

And C=CCOc1ccc(/C=N/n2cncn2)cc1OC ?
112

And CCOC(=O)Cc1csc(NC(=O)CN(C)S(=O)(=O)c2ccc3c(c2)CCC(=O)N3)n1 ?
109

And CCCCn1c(SCC(=O)c2ccc3c(c2)OCCO3)nnc1-c1ccco1 ?
104

And CCOC(=O)N1CCN(c2c(NCC3CCN(Cc4cccc(C)c4)CC3)c(=O)c2=O)CC1 ?
89.5

And CCC(=O)N1CCc2cc(OC)c(OC)cc2C1COc1ccc(C(=O)OC)cc1 (stereo not drawn) ?
83

And CCCCCc1c(C)nc(Nc2nc(C)c3cc(OC)ccc3n2)[nH]c1=O ?
85.5

And COc1ccc2c(c1)C(C)=CC(C)(C)N2C(=O)CSc1nnc(-c2ccc(C)cc2)o1 ?
99

And O=C(Nc1cccc(Cl)c1)N1CCN(c2ncccn2)CC1 ?
94.5

And c1csc(-c2nc3nc4ccccc4nc3n2Cc2ccc3c(c2)OCO3)c1 ?
75
